Origin of values: ChEMBL document CHEMBL5143714

Experiment: Volume of distribution at steady state in Sprague-Dawley rat at 1 mg/kg, iv
Type: ADME, organism-based
Details: in vivo, read-out: Vdss
reported_metric: Vd

Which Vd value is on record for `CC(C)(O)c1ccc(-c2cccc(N(CC34CCC(c5noc(C(C)(C)F)n5)(CC3)CC4)C(=O)[C@H]3C[C@](O)(C(F)(F)F)C3)c2)cc1` ?
5.2 L/kg

* * *

Biological target: Voltage-gated inwardly rectifying potassium channel KCNH2 (Homo sapiens)
Sequence (Q12809 whole entry): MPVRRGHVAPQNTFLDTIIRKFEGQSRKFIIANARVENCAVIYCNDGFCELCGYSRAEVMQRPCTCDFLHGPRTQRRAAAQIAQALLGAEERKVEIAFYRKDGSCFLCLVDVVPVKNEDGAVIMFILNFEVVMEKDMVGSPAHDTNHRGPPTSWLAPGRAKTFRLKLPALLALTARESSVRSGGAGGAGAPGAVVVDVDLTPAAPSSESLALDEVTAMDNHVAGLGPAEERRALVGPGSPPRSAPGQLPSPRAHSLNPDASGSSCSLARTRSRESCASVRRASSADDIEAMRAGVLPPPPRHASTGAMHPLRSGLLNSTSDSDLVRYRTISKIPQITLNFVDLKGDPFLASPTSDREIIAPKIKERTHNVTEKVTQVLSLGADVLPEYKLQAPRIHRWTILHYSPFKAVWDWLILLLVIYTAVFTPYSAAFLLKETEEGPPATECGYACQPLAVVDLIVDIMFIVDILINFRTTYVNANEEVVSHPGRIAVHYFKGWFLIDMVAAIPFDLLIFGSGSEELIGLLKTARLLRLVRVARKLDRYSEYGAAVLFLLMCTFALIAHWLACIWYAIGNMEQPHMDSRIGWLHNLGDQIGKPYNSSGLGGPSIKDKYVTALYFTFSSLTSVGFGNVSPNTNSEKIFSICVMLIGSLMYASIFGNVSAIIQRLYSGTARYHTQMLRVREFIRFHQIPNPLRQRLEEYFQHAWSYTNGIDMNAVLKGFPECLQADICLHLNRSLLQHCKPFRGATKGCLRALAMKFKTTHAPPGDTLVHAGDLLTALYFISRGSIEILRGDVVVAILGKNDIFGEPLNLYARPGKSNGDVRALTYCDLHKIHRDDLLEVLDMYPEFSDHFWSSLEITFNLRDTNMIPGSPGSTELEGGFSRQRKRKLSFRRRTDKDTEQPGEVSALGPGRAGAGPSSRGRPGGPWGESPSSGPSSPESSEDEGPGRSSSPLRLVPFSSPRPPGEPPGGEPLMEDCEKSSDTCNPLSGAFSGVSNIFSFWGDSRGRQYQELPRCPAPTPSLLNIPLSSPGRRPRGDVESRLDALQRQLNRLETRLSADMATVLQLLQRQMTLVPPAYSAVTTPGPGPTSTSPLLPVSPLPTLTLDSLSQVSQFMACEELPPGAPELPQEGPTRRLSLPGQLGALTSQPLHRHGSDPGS
Assay: Inhibition of hERG by patch clamp assay
reported_metric: pIC50
Answers are plain numbers, as −log10 of the molar value.

Which pIC50 value is on record for `CC(C)(O)c1ccc(-c2cccc(N(CC34CCC(c5noc(C(C)(C)F)n5)(CC3)CC4)C(=O)[C@H]3C[C@](O)(C(F)(F)F)C3)c2)cc1` ?
5.35

* * *

I'd be grateful if you could share measured pIC50 for these entries.
Target: Cytochrome P450 2C19 (Homo sapiens, UniProt P33261)
Sequence (P33261 whole entry): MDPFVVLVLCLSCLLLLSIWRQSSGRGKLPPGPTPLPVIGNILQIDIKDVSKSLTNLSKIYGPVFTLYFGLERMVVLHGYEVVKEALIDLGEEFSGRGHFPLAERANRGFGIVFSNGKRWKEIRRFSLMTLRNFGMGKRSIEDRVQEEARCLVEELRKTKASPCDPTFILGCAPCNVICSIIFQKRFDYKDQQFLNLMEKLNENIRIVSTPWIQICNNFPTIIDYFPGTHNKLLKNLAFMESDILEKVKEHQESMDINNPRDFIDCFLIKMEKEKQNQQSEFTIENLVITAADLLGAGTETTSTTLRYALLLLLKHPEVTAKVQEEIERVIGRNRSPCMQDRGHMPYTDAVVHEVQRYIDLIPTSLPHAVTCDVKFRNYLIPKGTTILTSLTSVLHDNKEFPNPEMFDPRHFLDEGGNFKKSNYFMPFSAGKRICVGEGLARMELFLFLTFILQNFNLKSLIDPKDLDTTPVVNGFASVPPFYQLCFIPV
Experiment: Inhibition of recombinant CYP2C19 (unknown origin) using fluorogenic substrate preincubated for 15 min followed by NADPH addition measured after 2 hrs by fluorescence method
Type: ADME
Give bare numbers, as −log10 of the molar value.

{"columns": ["entry_smiles", "target_under_test", "observed_result"],
 "data": [
  ["CC(C)(C)c1nc(C23CCC(CN(C(=O)C45CC(F)(C4)C5)c4cccc(-c5nnc(C6CC6)o5)c4)(CC2)CC3)no1", "Cytochrome P450 2C19 (Homo sapiens, UniProt P33261)", 6.00],
  ["CCOc1ccc(-c2cccc(N(CC34CCC(c5noc(C(C)(C)C)n5)(CC3)CC4)C(=O)C34CC(F)(C3)C4)c2)cn1", "Cytochrome P450 2C19 (Homo sapiens, UniProt P33261)", 5.10],
  ["CN1CCC(C(=O)N(CC23CCC(c4nc(C5CC5)no4)(CC2)CC3)c2cccc(-c3nc(C4CC4)no3)c2)CC1", "Cytochrome P450 2C19 (Homo sapiens, UniProt P33261)", 4.89],
  ["CC(C)(O)c1ccc(-c2cccc(N(CC34CCC(c5noc(C(C)(C)F)n5)(CC3)CC4)C(=O)[C@H]3C[C@](O)(C(F)(F)F)C3)c2)cc1", "Cytochrome P450 2C19 (Homo sapiens, UniProt P33261)", 5.15],
  ["CCOc1ncc(-c2cccc(N(CC34CCC(c5noc(C(C)(C)C)n5)(CC3)CC4)C(=O)C34CC(F)(C3)C4)c2)cn1", "Cytochrome P450 2C19 (Homo sapiens, UniProt P33261)", 5.22],
  ["CCOc1ncc(-c2cccc(N(CC34CCC(c5noc(C(C)(C)C)n5)(CC3)CC4)C(=O)[C@H]3C[C@](O)(C(F)(F)F)C3)c2)cn1", "Cytochrome P450 2C19 (Homo sapiens, UniProt P33261)", 5.00],
  ["CC(C)(O)c1ccc(-c2cccc(N(CC34CCC(c5noc(C(C)(C)F)n5)(CC3)CC4)C(=O)[C@H]3C[C@@](C)(O)C3)c2)cc1", "Cytochrome P450 2C19 (Homo sapiens, UniProt P33261)", 5.05],
  ["O=C(C1CCCCC1)N(CC12CCC(c3nc(C4CC4)no3)(CC1)CC2)c1cccc(-c2nc(C3CC3)no2)c1", "Cytochrome P450 2C19 (Homo sapiens, UniProt P33261)", 4.70]
]}

Answer for every listed entry: what is its pIC50? The entries follow.
1. CC(C)(C)c1nc(C23CCC(CN(C(=O)C45CC(F)(C4)C5)c4cccc(-c5nc(C6CC6)no5)c4)(CC2)CC3)no1
2. O=C(N(CC12CCC(c3nc(C4CC4)no3)(CC1)CC2)c1cccc(-c2nc(C3CC3)no2)c1)C12CC(F)(C1)C2
3. O=C(C1CC(F)(F)C1)N(CC12CCC(c3nc(C4CC4)no3)(CC1)CC2)c1cccc(-c2nc(C3CC3)no2)c1
4. CC(C)(C)c1noc(C23CCC(CN(C(=O)C45CC(F)(C4)C5)c4cccc(-c5nc(C6CC6)no5)c4)(CC2)CC3)n1
5. CCOc1ncc(-c2cccc(N(CC34CCC(c5noc(C(C)(C)C)n5)(CC3)CC4)C(=O)[C@H]3C[C@@](C)(O)C3)c2)cn1
6. O=C(C1CCS(=O)(=O)CC1)N(CC12CCC(c3nc(C4CC4)no3)(CC1)CC2)c1cccc(-c2nc(C3CC3)no2)c1
7. O=C(C1CCOCC1)N(CC12CCC(c3nc(C4CC4)no3)(CC1)CC2)c1cccc(-c2nc(C3CC3)no2)c1

5.05
5.70
4.77
4.70
5.05
5.10
4.70

Answer for every listed entry: what is its pIC50? The entries follow.
1. CCOc1ncc(-c2cccc(N(CC34CCC(c5noc(C(F)F)n5)(CC3)CC4)C(=O)C34CC(F)(C3)C4)c2)cn1
2. O=C(C1CCC(F)(F)CC1)N(CC12CCC(c3nc(C4CC4)no3)(CC1)CC2)c1cccc(-c2nc(C3CC3)no2)c1

1: 5.15; 2: 6.52

* * *

Target: Nuclear receptor subfamily 1 group I member 2 (Homo sapiens, UniProt O75469)
Sequence (O75469 whole entry): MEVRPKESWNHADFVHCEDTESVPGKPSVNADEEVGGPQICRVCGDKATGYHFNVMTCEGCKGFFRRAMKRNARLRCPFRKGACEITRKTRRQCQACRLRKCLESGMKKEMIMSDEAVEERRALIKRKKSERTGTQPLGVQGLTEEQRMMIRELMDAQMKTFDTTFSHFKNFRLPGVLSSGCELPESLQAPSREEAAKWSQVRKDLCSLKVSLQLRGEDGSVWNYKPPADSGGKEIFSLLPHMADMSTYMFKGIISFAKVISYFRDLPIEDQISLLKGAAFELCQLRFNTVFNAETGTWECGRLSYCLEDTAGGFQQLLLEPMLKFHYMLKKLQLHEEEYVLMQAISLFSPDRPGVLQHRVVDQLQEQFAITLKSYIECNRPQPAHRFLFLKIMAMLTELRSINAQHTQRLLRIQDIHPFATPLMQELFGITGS
Assay: Transactivation of PXR (unknown origin) relative to refampicin
Assay type: ADME
reported_metric: Emax
// unit must come after the numeric part

{"columns": ["entry_smiles", "Emax"],
 "data": [
  ["CCOc1ncc(-c2cccc(N(CC34CCC(c5noc(C(F)F)n5)(CC3)CC4)C(=O)C34CC(F)(C3)C4)c2)cn1", "28%"],
  ["CC(C)(C)c1noc(C23CCC(CN(C(=O)C45CC(F)(C4)C5)c4cccc(-c5nc(C6CC6)no5)c4)(CC2)CC3)n1", "11%"],
  ["CC(C)(O)c1ccc(-c2cccc(N(CC34CCC(c5noc(C(C)(C)F)n5)(CC3)CC4)C(=O)[C@H]3C[C@@](C)(O)C3)c2)cc1", "13%"]
]}

Answer for every listed entry: what is its Emax? The entries follow.
1. O=C(N(CC12CCC(c3nc(C4CC4)no3)(CC1)CC2)c1cccc(-c2nc(C3CC3)no2)c1)C12CC(F)(C1)C2
2. CC(C)(O)c1ccc(-c2cccc(N(CC34CCC(c5noc(C(C)(C)F)n5)(CC3)CC4)C(=O)[C@H]3C[C@](O)(C(F)(F)F)C3)c2)cc1
3. CC(C)(C)c1nc(C23CCC(CN(C(=O)C45CC(F)(C4)C5)c4cccc(-c5nc(C6CC6)no5)c4)(CC2)CC3)no1
4. O=C(C1CCCCC1)N(CC12CCC(c3nc(C4CC4)no3)(CC1)CC2)c1cccc(-c2nc(C3CC3)no2)c1
5. CCOc1ncc(-c2cccc(N(CC34CCC(c5noc(C(C)(C)C)n5)(CC3)CC4)C(=O)[C@H]3C[C@@](C)(O)C3)c2)cn1

1. 25%
2. 11%
3. 19%
4. 21%
5. 37%

* * *

Assay: Clearance in Sprague-Dawley rat at 1 mg/kg, iv
Assay type: ADME, organism-based
Details: in vivo
reported_metric: clearance

Which clearance value is on record for `CC(C)(O)c1ccc(-c2cccc(N(CC34CCC(c5noc(C(C)(C)F)n5)(CC3)CC4)C(=O)[C@H]3C[C@](O)(C(F)(F)F)C3)c2)cc1` ?
0.24 L/h/kg

* * *

Assay: Metabolic stability in rat liver microsome assessed as parent compound remaining at […] measured after 10 mins
Assay type: ADME
Conditions: liver microsomes, read-out: Stability
reported_metric: remaining at 10 min

# example entries with known answers
{"columns": ["entry_smiles", "remaining at 10 min"],
 "data": [
  ["CC(C)(O)c1ccc(-c2cccc(N(CC34CCC(c5noc(C(C)(C)F)n5)(CC3)CC4)C(=O)[C@H]3C[C@](O)(C(F)(F)F)C3)c2)cc1", "93%"],
  ["CC(C)(C)c1nc(C23CCC(CN(C(=O)C45CC(F)(C4)C5)c4cccc(-c5nnc(C6CC6)o5)c4)(CC2)CC3)no1", "60%"],
  ["CN1CCC(C(=O)N(CC23CCC(c4nc(C5CC5)no4)(CC2)CC3)c2cccc(-c3nc(C4CC4)no3)c2)CC1", "37%"]
]}

Answer for every listed entry: what is its remaining at 10 min? The entries follow.
1. CCOc1ccc(-c2cccc(N(CC34CCC(c5noc(C(C)(C)C)n5)(CC3)CC4)C(=O)C34CC(F)(C3)C4)c2)cn1
2. CC(C)(C)c1nc(C23CCC(CN(C(=O)C45CC(F)(C4)C5)c4cccc(-c5nc(C6CC6)no5)c4)(CC2)CC3)no1
3. CC(C)(C)c1noc(C23CCC(CN(C(=O)C45CC(F)(C4)C5)c4cccc(-c5nc(C6CC6)no5)c4)(CC2)CC3)n1
4. CCOc1ncc(-c2cccc(N(CC34CCC(c5noc(C(C)(C)C)n5)(CC3)CC4)C(=O)[C@H]3C[C@](O)(C(F)(F)F)C3)c2)cn1
5. CC(C)(O)c1ccc(-c2cccc(N(CC34CCC(c5noc(C(C)(C)F)n5)(CC3)CC4)C(=O)[C@H]3C[C@@](C)(O)C3)c2)cc1
6. CCOc1ncc(-c2cccc(N(CC34CCC(c5noc(C(C)(C)C)n5)(CC3)CC4)C(=O)C34CC(F)(C3)C4)c2)cn1

79%
81%
86%
73%
100%
80%

Answer for every listed entry: what is its remaining at 10 min? The entries follow.
1. CCOc1ncc(-c2cccc(N(CC34CCC(c5noc(C(C)(C)C)n5)(CC3)CC4)C(=O)[C@H]3C[C@@](C)(O)C3)c2)cn1
2. O=C(C1CCS(=O)(=O)CC1)N(CC12CCC(c3nc(C4CC4)no3)(CC1)CC2)c1cccc(-c2nc(C3CC3)no2)c1
3. O=C(N(CC12CCC(c3nc(C4CC4)no3)(CC1)CC2)c1cccc(-c2nc(C3CC3)no2)c1)C12CC(F)(C1)C2
4. CCOc1ncc(-c2cccc(N(CC34CCC(c5noc(C(F)F)n5)(CC3)CC4)C(=O)C34CC(F)(C3)C4)c2)cn1
5. O=C(C1CCOCC1)N(CC12CCC(c3nc(C4CC4)no3)(CC1)CC2)c1cccc(-c2nc(C3CC3)no2)c1

1: 44%; 2: 10%; 3: 99%; 4: 64%; 5: 0%

Answer for every listed entry: what is its remaining at 10 min? The entries follow.
1. O=C(C1CCCCC1)N(CC12CCC(c3nc(C4CC4)no3)(CC1)CC2)c1cccc(-c2nc(C3CC3)no2)c1
2. O=C(C1CC(F)(F)C1)N(CC12CCC(c3nc(C4CC4)no3)(CC1)CC2)c1cccc(-c2nc(C3CC3)no2)c1

1. 4%
2. 72%

Which remaining at 10 min value is on record for `O=C(C1CCC(F)(F)CC1)N(CC12CCC(c3nc(C4CC4)no3)(CC1)CC2)c1cccc(-c2nc(C3CC3)no2)c1` ?
23%
